# Procedure Text: Human HepG2 cell viability assay in 384 well format
# Assay type: toxicity, cell-based
# Parameters: dose 125 nL, time 70.5 hour; concentration not given beside the values
# Condition Details: HepG2 cells, read-out: Inhibition
Measured Property: cytotoxicity at 70.5 h (%)
Express it in %; write the number only.

Molecule	cytotoxicity at 70.5 h (%)
CSc1ccc(C(CNC(=O)C2CC2)N2CCc3sccc3C2)cc1 (stereo unspecified)	-2.83
CNc1cc(-c2nc(CCN3CCCC3=O)no2)ccn1	12.1
Fc1cccc2[nH]c(CN3CCc4cncnc4C3)nc12	-7.7
COc1ccccc1CC(=O)N1CCCC(n2nc(C)cc2C)C1 (stereo unspecified)	2.04
O=C(N1CCCC1)N1CCO[C@H]2[C@@H](OCc3cccnc3)CC[C@@H]21	-8.11
CS(=O)(=O)N1CCc2sc(C(=O)NCc3ccccc3)cc21	-9.68

Next up:
Value lookup for cytotoxicity at 70.5 h; key = `c1cc(-c2ccn(CCN3CCCC3)n2)cc(-c2nccs2)c1`
-6.38

----------
# Procedure Text: Human HepG2 cell viability assay in 384 well format
# Format: toxicity, cell-based
# Parameters: dose 125 nL, time 70.5 hour; concentration not given beside the values
# Condition Details: HepG2 cells, read-out: Inhibition
Measured Property: cytotoxicity at 70.5 h (%)
Express it in %; write the number only.

Compound	Display Unit	Reported Measurement
CN(C)C(=O)CN1CCC2(CCCN(Cc3ccsc3)C2)C1=O (stereo unspecified)	%	-15.6
CNC(=O)[C@H]1C[C@@H]2CN(C(=O)c3ccc(C)o3)C[C@@H]2N1S(C)(=O)=O	%	-9.33
NCCO[C@H]1C[C@@H](O)C12CCN(Cc1c(F)cccc1F)CC2	%	-7.05
Cc1ccc2c(c1)C(NC1CCN(C)CC1)CCCO2 (stereo unspecified)	%	15.4
O=C(NC1CC1)N1CCOCC2(CCN(Cc3cccs3)C2)C1 (stereo unspecified)	%	-16

Value lookup for cytotoxicity at 70.5 h; key = `CC(C)NC(=O)[C@@H]1C[C@@H](N)CN1C(=O)CCSCc1ccc(F)cc1`
-3.93

Value lookup for cytotoxicity at 70.5 h; key = Cc1cc(C)n(CCN2CCC(N(C)Cc3noc(C4CC4)n3)C2)n1 (stereo unspecified)
-4.52

Value lookup for cytotoxicity at 70.5 h; key = `COc1ccnc(N2CCN(C(=O)N3CCOCC3)CC2)n1`
-10.7

Value lookup for cytotoxicity at 70.5 h; key = `CCn1c(C)nnc1SCCNc1nc(C)nc2ncccc12`
-15.7

Value lookup for cytotoxicity at 70.5 h; key = Cc1ccc(CN2CCN(C3CCCC3)CC2CCO)o1 (stereo unspecified)
8.76

Value lookup for cytotoxicity at 70.5 h; key = `CN(CCCSc1ccccc1)C(=O)Cn1ncc(N(C)C)cc1=O`
-7.24

----------
# Procedure Text: Human HepG2 cell viability assay in 384 well format
# Format: toxicity, cell-based
# Design: dose 125 nL, time 70.5 hour; concentration not given beside the values
# Condition Details: HepG2 cells, read-out: Inhibition
Measured Property: cytotoxicity at 70.5 h (%)
Express it in %; write the number only.

Past entries and their recorded results:
Compound	Measured Property	Reported Measurement
O=C(Nc1cccc(OCc2ccc(F)cc2)c1)C1COCCO1 (configuration not stated)	cytotoxicity at 70.5 h	-4.75
CCC(CC)C(CNC(=O)Nc1cnn(CCOC)c1)N(C)C (configuration not stated)	cytotoxicity at 70.5 h	-8.7
CC(CNC(=O)c1ccc(Cl)cc1I)N1CCCC1 (configuration not stated)	cytotoxicity at 70.5 h	-8.19
CC(=O)c1cccc(OCCCC(=O)N(C)Cc2ccccn2)c1	cytotoxicity at 70.5 h	-2.88
Cc1cccc(NC(=O)NC2CCC3(C2)OCCO3)c1Cl (configuration not stated)	cytotoxicity at 70.5 h	-6.97
O=C(NCCN1CCOCC1)c1ccn(-c2ccccc2F)n1	cytotoxicity at 70.5 h	-2.56
CCOCCC(=O)NCC(C)c1ccsc1 (configuration not stated)	cytotoxicity at 70.5 h	-5.93
CC(OCC1CC1)C(=O)NCc1ccc(Cn2ccnc2)cc1 (configuration not stated)	cytotoxicity at 70.5 h	-6.63
Cc1cc(NCC2CCN(c3ccccc3)C2)n2ncnc2n1 (configuration not stated)	cytotoxicity at 70.5 h	-1.33
CC[C@@H](CO)Nc1nccc(-c2c[nH]c3cc(C(=O)OC)ccc23)n1	cytotoxicity at 70.5 h	-2.08

Value lookup for cytotoxicity at 70.5 h; key = Cc1nc(CN2CCCC(CCc3ccc(F)cc3F)C2)c[nH]1 (configuration not stated)
-1.86

Value lookup for cytotoxicity at 70.5 h; key = `CN(C)CCN(Cc1ccccn1)C(=O)Nc1cccc(F)c1`
-9.47

----------
# Procedure Text: Human HepG2 cell viability assay in 384 well format
# Format: toxicity, cell-based
# Design: dose 125 nL, time 70.5 hour; concentration not given beside the values
# Condition Details: HepG2 cells, read-out: Inhibition
Collected cytotoxicity at 70.5 h values appear next to each entry.
Express it in %; write the number only.

Value lookup for cytotoxicity at 70.5 h; key = `O=C(Nc1ccc2c(c1)OCO2)N1CCN(CCn2cccn2)CC1`
-11.3

----------
Collected cytotoxicity at 70.5 h values appear next to each entry.
# Procedure Text: Human HepG2 cell viability assay in 384 well format
# Type: toxicity, cell-based
# Set-up: dose 125 nL, time 70.5 hour; concentration not given beside the values
# Condition Details: HepG2 cells, read-out: Inhibition
Express it in %; write the number only.

Compound	Reported Measurement
CN(C)CCN1CC(C(=O)N2CCC(c3cccc(O)c3)CC2)CC1=O (stereo not drawn)	2.7

Value lookup for cytotoxicity at 70.5 h; key = Cn1cnnc1C1CCCN(C(=O)c2n[nH]c3ccccc23)C1 (stereo not drawn)
4.38

Value lookup for cytotoxicity at 70.5 h; key = CCN1CCN(c2ccccc2NC(=O)N(C)C2CCSC2)CC1 (stereo not drawn)
-13.8

Value lookup for cytotoxicity at 70.5 h; key = Oc1ccccc1-c1n[nH]c(C2CCCO2)n1 (stereo not drawn)
28.5

Value lookup for cytotoxicity at 70.5 h; key = O=C(c1scc2c1OCCO2)N1CCOC(Cc2ccc(F)cc2)C1 (stereo not drawn)
-0.136

Value lookup for cytotoxicity at 70.5 h; key = `Nc1ncnc2c1ncn2[C@H]1CCN(Cc2ccsc2)CC[C@@H]1O`
-6.05

Value lookup for cytotoxicity at 70.5 h; key = `CC(=O)Nc1nc(CN2CCn3c(nnc3C(C)C)C2)cs1`
-4.17

Value lookup for cytotoxicity at 70.5 h; key = `CCc1ncc2c(n1)CN(Cc1nc(-c3ccoc3)no1)CC2`
-3.42

Value lookup for cytotoxicity at 70.5 h; key = COCc1nc(CN2CCN(c3ccc(OC)cc3)C(=O)C2C)no1 (stereo not drawn)
-27.3

Value lookup for cytotoxicity at 70.5 h; key = `Cc1nnc(CN2C[C@H](NC(=O)CC3CCCC3)[C@@H](C3CC3)C2)s1`
-7.74

Value lookup for cytotoxicity at 70.5 h; key = CN(Cc1ccccc1)CC(O)Cn1cnc2ccccc2c1=O (stereo not drawn)
6.62

Value lookup for cytotoxicity at 70.5 h; key = `COc1ccc(S(=O)(=O)NC(=O)c2c(C)noc2C(C)C)cc1C`
-5.8

Value lookup for cytotoxicity at 70.5 h; key = `Cc1ccc(O)c(CN2CCc3nc(-c4cccnc4)nc(O)c3C2)c1`
-5.78

Value lookup for cytotoxicity at 70.5 h; key = COc1ccc(C)cc1C(=O)NC(CC(=O)O)c1cccs1 (stereo not drawn)
-11.4

Value lookup for cytotoxicity at 70.5 h; key = CCOc1ccc(CNC(C)c2cccc(S(=O)(=O)NC)c2)cc1 (stereo not drawn)
-9.92

Value lookup for cytotoxicity at 70.5 h; key = `Cn1cc(CN2CC[C@H]3O[C@@H](COCc4cccnc4)CC[C@H]32)cn1`
-12

Value lookup for cytotoxicity at 70.5 h; key = OC(CN1CCCCCCC1)c1ccc(F)cc1 (stereo not drawn)
3.53

Value lookup for cytotoxicity at 70.5 h; key = Cc1nc(NCC2CC2)nc2c1COCC21CCN(C(=O)C(C)(C)C)C1 (stereo not drawn)
-18.4

Value lookup for cytotoxicity at 70.5 h; key = `Cc1ccc(N2Cc3nc(=O)n(C(C)C)n3C2=O)cc1`
-28.9

----------
# Procedure Text: Human HepG2 cell viability assay in 384 well format
# Format: toxicity, cell-based
# Design: dose 125 nL, time 70.5 hour; concentration not given beside the values
# Condition Details: HepG2 cells, read-out: Inhibition
Measured Property: cytotoxicity at 70.5 h (%)
Express it in %; write the number only.

Past entries and their recorded results:
Compound	cytotoxicity at 70.5 h / %
O=C(N[C@@H]1CCNC[C@H]1O)c1cc(F)cc(Cl)c1	-1.46
COc1ccc(CN2CCOC[C@H](OCC(=O)N(C)C)C2)cc1	-1.39
Cc1ccc(NC(=O)C2CSCN2C(=O)c2cnccn2)cc1C (centres undefined)	-9.37
COC(=O)CCC(=O)N1CCc2[nH]nc(-c3ccc4c(c3)OCO4)c2C1	-3.99
Cc1cc(-c2nc(-c3c(C)ncc4c3CCNC4)no2)nc(C)n1	26.9
CCOCCCNC(=O)c1nn(CC)cc1Br	25.1

Value lookup for cytotoxicity at 70.5 h; key = CCn1ncnc1C(C)NC(=O)COc1ccc(Cl)cc1Cl (centres undefined)
-10.4

Value lookup for cytotoxicity at 70.5 h; key = `CN1CCN(C(=O)C[C@@H]2COC[C@H]3CN(c4ccncn4)C[C@@H]23)CC1`
12.2

Value lookup for cytotoxicity at 70.5 h; key = `Cc1cc(CN(C)CC2CCCCC2)no1`
-2

Value lookup for cytotoxicity at 70.5 h; key = CC(C)(C)OC(=O)N1CCCCC1C(=O)NCc1cc[nH]n1 (centres undefined)
-7.48
